Target: Asparagine synthetase [glutamine-hydrolyzing] (Homo sapiens, UniProt P08243)
Sequence (P08243 whole entry): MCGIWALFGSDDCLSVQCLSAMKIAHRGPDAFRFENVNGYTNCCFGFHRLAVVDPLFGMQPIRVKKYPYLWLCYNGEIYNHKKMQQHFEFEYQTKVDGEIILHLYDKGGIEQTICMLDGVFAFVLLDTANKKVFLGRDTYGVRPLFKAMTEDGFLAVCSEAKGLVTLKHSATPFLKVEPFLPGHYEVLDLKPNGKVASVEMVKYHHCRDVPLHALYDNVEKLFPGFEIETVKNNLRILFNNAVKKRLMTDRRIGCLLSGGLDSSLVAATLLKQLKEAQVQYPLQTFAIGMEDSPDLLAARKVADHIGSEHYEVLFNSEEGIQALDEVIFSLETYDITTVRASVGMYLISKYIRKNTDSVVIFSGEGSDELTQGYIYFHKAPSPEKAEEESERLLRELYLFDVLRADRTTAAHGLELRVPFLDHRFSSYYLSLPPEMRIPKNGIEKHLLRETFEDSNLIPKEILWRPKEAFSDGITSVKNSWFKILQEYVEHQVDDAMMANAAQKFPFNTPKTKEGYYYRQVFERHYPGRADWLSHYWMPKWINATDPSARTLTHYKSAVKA
Assay: Inhibition of human recombinant ASNS expressed in Sf9 insect cells
endpoint: Ki
Lab note: write values as number then unit, every time.

Query string: # lookup: Ki of C[S+]([O-])(C[C@H](N)C(=O)O)=NP(=O)(O)OC[C@H]1O[C@@H](n2cnc3c(N)ncnc32)[C@H](O)[C@@H]1O (stereo partly specified)
Result string: 20 µM
